system: Fibroblast; assay: Multiplex assay against human fibroblast; format: toxicity, cell-based; conditions: 24 h, 1 µM, compound concentration 1 uM, replicate 2
For each record, write down the corresponding Population Mitochondria Different-Phenotype (%).
One number for each entry, in %.

[[record]]
compound = "CNC(=O)c1cc(Oc2ccc(NC(=O)Nc3cc(C(C)(C)C)nn3-c3ccc4ncccc4c3)c(F)c2)ccn1"
assay_value = 10

[[record]]
compound = "CCOc1cc(N2CCC(O)CC2)ccc1Nc1ncc2c(n1)N(C1CCCC1)CCC(=O)N2C"
assay_value = 20

[[record]]
compound = "CN(C)CCOc1ccc(-c2nc(-c3ccncc3)c(-c3ccc4c(c3)CC/C4=N\\O)[nH]2)cc1"
assay_value = 5

[[record]]
compound = "CCn1c(-c2nonc2N)nc2cnc(Oc3cccc(NC(=O)c4ccc(OCCN5CCOCC5)cc4)c3)cc21 [GSK-269962A]"
assay_value = 10

[[record]]
compound = "Cl.Cl.NC1(c2ccc(-c3nc4ccn5c(=O)[nH]nc5c4cc3-c3ccccc3)cc2)CCC1"
assay_value = 0

[[record]]
compound = "Cc1cn(-c2cc(NC(=O)c3ccc4c(c3)CN(c3cncnc3)C[C@@H]4C)cc(C(F)(F)F)c2)cn1"
assay_value = 8

[[record]]
compound = "COc1cc2c(NC3CCN(C(C)C)CC3)nc(N3CCC(F)(F)CC3)nc2cc1OCCCN1CCCC1"
assay_value = 7

[[record]]
compound = "CC(=O)c1cc(-c2cc(C(=O)NC3CC3)ccc2C)c2ncccn12"
assay_value = 9


# batch: return Population Mitochondria Different-Phenotype (%) for each of the 2 compounds below
1. CC(C)(C)c1cnc(CSc2cnc(NC(=O)C3CCNCC3)s2)o1
2. CC(C)N1CCC(C)(C)c2cc(C#Cc3ccc(C(=O)O)cc3)ccc21

[5, 10]

# batch: return Population Mitochondria Different-Phenotype (%) for each of the 8 compounds below
1. CCc1cc2c(cc1CC)CC(NC[C@H](O)c1ccc(O)c3[nH]c(=O)ccc13)C2
2. CCC(=O)O[C@]1(C(=O)SCF)[C@H](C)C[C@H]2[C@@H]3C[C@H](F)C4=CC(=O)C=C[C@]4(C)[C@@]3(F)[C@@H](O)C[C@@]21C [FLUTICASONE PROPIONATE]
3. CCOc1cc2ncc(C#N)c(Nc3ccc(OCc4cccc(F)c4)c(Cl)c3)c2cc1NC(=O)/C=C/CN(C)C
4. Cl.Cl.Nc1ncnc2c1c(-c1cccc(OCc3ccccc3)c1)cn2[C@H]1C[C@@H](CN2CCC2)C1
5. Nc1ccc(C(=O)Nc2cccc(-c3nc(N4CCOCC4)c4oc5ncccc5c4n3)c2)cn1
6. Nc1nc2c(c(N3CCNCC3)n1)CCC1=C2[C@@H]2CCCC[C@@H]2O1
7. N#Cc1cnc(Nc2cc(NC[C@H]3CNCCO3)c(C(F)(F)F)cn2)cn1
8. CNC(=O)c1nn(C)c2c1C(C)(C)Cc1cnc(Nc3ccc(N4CCN(C)CC4)cc3)nc1-2

1: 10; 2: 11; 3: 4; 4: 68; 5: 42; 6: 20; 7: 9; 8: 30

# batch: return Population Mitochondria Different-Phenotype (%) for each of the 3 compounds below
1. CN(C)C/C=C/C(=O)Nc1cc2c(Nc3ccc(F)c(Cl)c3)ncnc2cc1O[C@H]1CCOC1.O=C(O)/C=C\C(=O)O.O=C(O)/C=C\C(=O)O [AFATINIB DIMALEATE]
2. CCCn1c(=O)c2[nH]c(C34CC5CC(CC3C5)C4)nc2n(CCC)c1=O
3. O=C(O)c1ccc2cc(-c3ccc(O)c(C45CC6CC(CC(C6)C4)C5)c3)ccc2c1

1. 6
2. 11
3. 30

# batch: return Population Mitochondria Different-Phenotype (%) for each of the 8 compounds below
1. CC(C)Oc1ccc(C(=O)N[C@H](CNC(=O)CN(C)C)Cc2ccc(-c3cn4cccc([C@H](C)O)c4n3)cc2)cc1Cl [GSK-923295A]
2. c1ccc2oc(-c3csc(C4CCN(Cc5nc6ncccc6[nH]5)CC4)n3)cc2c1
3. Cc1cc2c(cc1N1C(=O)c3cccc4c(CCCO)ccc(c34)C1=O)n(C)c(=O)n2C
4. COc1cc2c(Nc3ccc(NC(=O)c4ccccc4)cc3)ncnc2cc1OCCCN1CCOCC1
5. COc1ccc(NS(=O)(=O)c2sc3ccc(Cl)cc3c2C)cc1N1CCNCC1.Cl
6. COc1cc(N2CCC(N(C)C)CC2)ccc1Nc1ncc(Cl)c(Nc2ccccc2P(C)(C)=O)n1
7. CNc1oc(-c2cccc3ccccc23)nc1C#N
8. Cc1nc(Cc2cccc(C(F)(F)F)c2)sc1-c1ccc(C(N)=O)nc1 [TP-024n]

1. 15
2. 0
3. 27
4. 33
5. 13
6. 6
7. 10
8. 7
